The values you see were collected from the supplement of paper PMC10883282.

- Test system: RD
- Assay procedure: relative viability vs DMSO control (72 h) (fraction); higher = more viable cells
- Test parameters: 0.00051 µM
relative viability values for the molecules below.

Molecule	relative viability
COCCNc1cc(NC(=O)N2CCCc3cc(CN4CCN(C)CC4=O)c(C=O)nc32)ncc1C#N [Roblitinib]	1.07
O=c1sn(-c2cccc3ccccc23)c(=O)n1Cc1ccccc1 [Tideglusib]	1.12
Clc1ccc(Nc2nnc(Cc3ccncc3)c3ccccc23)cc1 [Vatalanib]	1.1
COC(=O)N[C@@H](C)CNc1nccc(-c2cn(C(C)C)nc2-c2cc(Cl)cc(NS(C)(=O)=O)c2F)n1 [Encorafenib]	1.01

====

- Tested on: SW982
- Assay procedure: relative viability vs DMSO control (72 h) (fraction); higher = more viable cells
- Test parameters: 1.111 µM
relative viability values for the compounds below.
Measurement type: relative viability

Compound	Measurement type	Endpoint value
CO[C@H]1C[C@@H]2CC[C@@H](C)[C@@](O)(O2)C(=O)C(=O)N2CCCC[C@H]2C(=O)O[C@H]([C@H](C)C[C@@H]2CC[C@@H](OCCO)[C@H](OC)C2)CC(=O)[C@H](C)/C=C(\C)[C@@H](O)[C@@H](OC)C(=O)[C@H](C)C[C@H](C)/C=C/C=C/C=C/1C	relative viability	0.618
CC#CC(=O)N1CCC[C@H]1c1nc(-c2ccc(C(=O)Nc3ccccn3)cc2)c2c(N)nccn12	relative viability	1.02
O=c1sn(-c2cccc3ccccc23)c(=O)n1Cc1ccccc1	relative viability	1.07
C[C@]12O[C@H](C[C@]1(O)CO)n1c3ccccc3c3c4c(c5c6ccccc6n2c5c31)CNC4=O	relative viability	0.314
CN1CCN(c2ccc(C(=O)Nc3n[nH]c4ccc(Cc5cc(F)cc(F)c5)cc34)c(NC3CCOCC3)c2)CC1	relative viability	0.865
COC(=O)[C@@]1(O)C[C@H]2O[C@]1(C)n1c3ccccc3c3c4c(c5c6ccccc6n2c5c31)C(=O)NC4 [K-252a]	relative viability	0.291
CC(C)(O)CNc1nc(Nc2ccnc(C(F)(F)F)c2)nc(-c2cccc(C(F)(F)F)n2)n1	relative viability	1.13
Cc1ccc(Nc2nccc(N(C)c3ccc4c(C)n(C)nc4c3)n2)cc1S(N)(=O)=O	relative viability	1.06

====

relative viability values for the molecules below.
- System: SW684
- Assay procedure: relative viability vs DMSO control (72 h) (fraction); higher = more viable cells
- Test parameters: 0.00017 µM

Structure string	relative viability
CC(C)(O)CNc1nc(Nc2ccnc(C(F)(F)F)c2)nc(-c2cccc(C(F)(F)F)n2)n1	1.22
CCN(CC)CCNC(=O)c1c(C)[nH]c(/C=C2\C(=O)Nc3ccc(F)cc32)c1C	1.17
Cc1ccc(Nc2nccc(N(C)c3ccc4c(C)n(C)nc4c3)n2)cc1S(N)(=O)=O	1.13
CC(C)NC[C@@H](C(=O)N1CCN(c2ncnc3c2[C@H](C)C[C@H]3O)CC1)c1ccc(Cl)cc1	1.07

====

- Tested on: A204
- Assay procedure: relative viability vs DMSO control (72 h) (fraction); higher = more viable cells
- Test parameters: 0.1235 µM
relative viability values for the molecules below.

Molecule	relative viability
CNC(=O)c1ccccc1Sc1ccc2c(/C=C/c3ccccn3)n[nH]c2c1 [Axitinib]	0.405
CO[C@H]1C[C@@H]2CC[C@@H](C)[C@@](O)(O2)C(=O)C(=O)N2CCCC[C@H]2C(=O)O[C@H]([C@H](C)C[C@@H]2CC[C@@H](OCCO)[C@H](OC)C2)CC(=O)[C@H](C)/C=C(\C)[C@@H](O)[C@@H](OC)C(=O)[C@H](C)C[C@H](C)/C=C/C=C/C=C/1C [Certican]	0.498
CCN1C(=O)N(c2c(F)c(OC)cc(OC)c2F)Cc2cnc3[nH]c(CN4CCOCC4)cc3c21 [Pemigatinib]	0.599
Cn1ncnc1[C@H]1c2n[nH]c(=O)c3cc(F)cc(c23)N[C@@H]1c1ccc(F)cc1 [Talazoparib]	0.715

====

- System: KHOS-NP
- Assay procedure: relative viability vs DMSO control (72 h) (fraction); higher = more viable cells
- Test parameters: 0.1235 µM
relative viability values for the compounds below.
Measurement type: relative viability

Compound	Endpoint value
O=S(=O)(c1cccc2cnccc12)N1CCCNCC1 [Fasudil]	1.03
CCN1C(=O)N(c2c(F)c(OC)cc(OC)c2F)Cc2cnc3[nH]c(CN4CCOCC4)cc3c21 [Pemigatinib]	1.07
CN1CCN(c2ccc(C(=O)Nc3n[nH]c4ccc(Cc5cc(F)cc(F)c5)cc34)c(NC3CCOCC3)c2)CC1 [Entrectinib]	1.04
CC1(COc2ccc3c(c2)ncn3-c2ccc3cccc(N4CCC(N)CC4)c3n2)COC1 [Crenolanib]	0.998
COc1cc(CCc2cc(NC(=O)c3ccc(N4CC(C)NC(C)C4)cc3)n[nH]2)cc(OC)c1 (stereo unspecified) [AZD-4547]	1.03
COC(=O)N[C@@H](C)CNc1nccc(-c2cn(C(C)C)nc2-c2cc(Cl)cc(NS(C)(=O)=O)c2F)n1 [Encorafenib]	1.03

====

relative viability values for the molecules below.
- Tested on: HS729
- Assay procedure: relative viability vs DMSO control (72 h) (fraction); higher = more viable cells
- Test parameters: 0.3704 µM

Molecule	System	relative viability
CC1(C)CC=C(c2nc(C3CC(C)(C)OC(C)(C)C3)ccc2NC(=O)c2nc(C#N)c[nH]2)CC1 [Edicotinib]	HS729	0.9
CC(C)(C)c1nc(-c2cccc(NS(=O)(=O)c3c(F)cccc3F)c2F)c(-c2ccnc(N)n2)s1 [Dabrafenib]	HS729	0.659
COc1cc(Nc2ncc(F)c(Nc3ccc4c(n3)N(COP(=O)(O)O)C(=O)C(C)(C)O4)n2)cc(OC)c1OC [Fostamatinib]	HS729	0.724
CNC(=O)c1ccccc1Sc1ccc2c(/C=C/c3ccccn3)n[nH]c2c1 [Axitinib]	HS729	0.861
Cc1cccc(-c2nn3c(c2-c2ccnc4ccc(C(N)=O)cc24)CCC3)n1 [Galunisertib]	HS729	0.836
COC(=O)[C@@]1(O)C[C@H]2O[C@]1(C)n1c3ccccc3c3c4c(c5c6ccccc6n2c5c31)C(=O)NC4 [K-252a]	HS729	0.752
O=C(Nc1ccc(OC(F)(F)Cl)cc1)c1cnc(N2CC[C@@H](O)C2)c(-c2cc[nH]n2)c1 [Asciminib]	HS729	0.901
Cn1cc(C2=C(c3cn(C4CCN(Cc5ccccn5)CC4)c4ccccc34)C(=O)NC2=O)c2ccccc21 [Enzastaurin]	HS729	1.02
C[C@H](Nc1ncnc2nc[nH]c12)c1cc2cccc(Cl)c2c(=O)n1-c1ccccc1 [Duvelisib]	HS729	0.891
COc1cc(CCc2cc(NC(=O)c3ccc(N4CC(C)NC(C)C4)cc3)n[nH]2)cc(OC)c1 (stereo not drawn) [AZD-4547]	HS729	0.627
COC(=O)N[C@@H](C)CNc1nccc(-c2cn(C(C)C)nc2-c2cc(Cl)cc(NS(C)(=O)=O)c2F)n1 [Encorafenib]	HS729	0.975
CC(C)Oc1ccc(-c2nn([C@@H](C)c3oc4ccc(F)cc4c(=O)c3-c3cccc(F)c3)c3ncnc(N)c23)cc1F [Umbralisib]	HS729	1.01
CNC(=O)c1nnc(NC(=O)C2CC2)cc1Nc1cccc(-c2ncn(C)n2)c1OC	HS729	0.855

====

relative viability values for the compounds below.
- System: KHOS-240S
- Assay procedure: relative viability vs DMSO control (72 h) (fraction); higher = more viable cells
- Test parameters: 0.04115 µM

Compound	relative viability
O=C1NC(=O)[C@@H](c2cn3c4c(cccc24)CCC3)[C@@H]1c1c[nH]c2ccccc12 [Tivantinib]	1.01
CN1CC[C@@H](NC(=O)Nc2ccc(C#N)cc2)C[C@@H]1c1nc2ccccc2[nH]1 [Glasdegib]	1.06
N#CCNC(=O)c1ccc(-c2ccnc(Nc3ccc(N4CCOCC4)cc3)n2)cc1 [Momelotinib]	1.03
CC(C)NC[C@@H](C(=O)N1CCN(c2ncnc3c2[C@H](C)C[C@H]3O)CC1)c1ccc(Cl)cc1 [Ipatasertib]	0.991
N#CC1(c2ccc(NC(=O)c3cccnc3NCc3ccncc3)cc2)CCCC1 [Apatinib]	1.05

====

relative viability values for the molecules below.
- Test system: SW872
- Assay procedure: relative viability vs DMSO control (72 h) (fraction); higher = more viable cells
- Test parameters: 0.00457 µM
Measurement type: relative viability

Structure string	System	Endpoint value
CC(C)(C)c1nc(-c2cccc(NS(=O)(=O)c3c(F)cccc3F)c2F)c(-c2ccnc(N)n2)s1	SW872	0.821
N#CCNC(=O)c1ccc(-c2ccnc(Nc3ccc(N4CCOCC4)cc3)n2)cc1	SW872	1.02
O=c1sn(-c2cccc3ccccc23)c(=O)n1Cc1ccccc1	SW872	1.09
Cc1ccc(Nc2nccc(N(C)c3ccc4c(C)n(C)nc4c3)n2)cc1S(N)(=O)=O	SW872	0.991
CCc1cnn2c(NCc3ccc[n+]([O-])c3)cc(N3CCCC[C@H]3CCO)nc12	SW872	1.03
